# target entity: Tyrosyl-tRNA synthetase, putative (Trypanosoma cruzi (strain CL Brener)) (UniProt Q4DSP6)
# Sequence (Q4DSP6 as listed by the source): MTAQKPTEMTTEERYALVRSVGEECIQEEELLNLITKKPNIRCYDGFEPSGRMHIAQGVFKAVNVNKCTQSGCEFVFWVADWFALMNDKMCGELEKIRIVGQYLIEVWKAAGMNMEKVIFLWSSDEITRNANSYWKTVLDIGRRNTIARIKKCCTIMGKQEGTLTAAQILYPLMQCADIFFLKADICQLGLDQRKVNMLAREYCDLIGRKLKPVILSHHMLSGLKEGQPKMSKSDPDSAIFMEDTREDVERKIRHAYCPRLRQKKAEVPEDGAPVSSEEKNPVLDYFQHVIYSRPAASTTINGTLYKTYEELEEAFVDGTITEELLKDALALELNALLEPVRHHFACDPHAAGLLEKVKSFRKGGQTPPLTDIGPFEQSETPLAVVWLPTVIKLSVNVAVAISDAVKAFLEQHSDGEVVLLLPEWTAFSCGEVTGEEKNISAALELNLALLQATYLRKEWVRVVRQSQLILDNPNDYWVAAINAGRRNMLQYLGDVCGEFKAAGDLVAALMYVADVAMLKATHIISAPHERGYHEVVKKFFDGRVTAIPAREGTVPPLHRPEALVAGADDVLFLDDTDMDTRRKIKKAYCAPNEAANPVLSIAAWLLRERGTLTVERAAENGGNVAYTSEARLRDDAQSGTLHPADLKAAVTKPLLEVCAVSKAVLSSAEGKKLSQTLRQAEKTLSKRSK
# measurement notes: Trypanosoma cruzi tyrosyl tRNA synthetase (TcYRS) _High Tyrosine SOP
# Format: functional
# Set-up: scale not given: in the data most compounds retested in dose-response had high values
# setup conditions: 30 µM
quantity name: Percent Effect (%)

Cc1cc(C)n(CC2CCCN2Cc2c(C)noc2C)n1 (stereo not drawn)
2.46
O=C(CCc1cnn(-c2ccccc2)c1)N1CCCC(n2cccn2)C1 (stereo not drawn)
8.33
COCc1nn(C(C)C)c2c1CCN(Cc1cccs1)C2
7.29
O=c1[nH]c(CCN2CCCC(Cn3cncn3)C2)nc2ccccc12 (stereo not drawn)
4.95
COc1ccc(CNC2CCCN(Cc3noc(C)n3)C2)cc1F (stereo not drawn)
0.971
Cc1cccnc1C(=O)N1CCCC(c2[nH]ncc2S(C)(=O)=O)C1 (stereo not drawn)
5.29
CC(C)c1nc2n(n1)CC(NCc1nnnn1C1CC1)CC2 (stereo not drawn)
4.43
O[C@]1(c2ccccn2)CC[C@@H]2CN(Cc3cccc4ncccc34)C[C@@H]21
9.68
COc1ccc(C(C)NC(=O)Cn2ccc(=O)n(C)c2=O)cc1OC (stereo not drawn)
8.82
CCn1cc(CN2CCCN(C(=O)c3sccc3C#N)CC2)cn1
2.46
COc1ccc(S(N)(=O)=O)cc1C(=O)N(C)Cc1cc(C)on1
1.44
CC(C)CCn1[nH]c(CNc2ccccc2)nc1=O
2.13
COc1cccc(C2CC(=O)Nc3nc(N)sc32)c1OC (stereo not drawn)
-4.25
CCOc1ccc(C(C)NC(=O)N2CCC(C(N)=O)CC2)cc1OC (stereo not drawn)
5.82
O=C1NCC2(CCCN(Cc3ccc(Cl)s3)C2)Oc2ccccc21 (stereo not drawn)
4.23
COc1cc(CN(C)C(=O)Cc2c(C)nn(C)c2C)ccc1OC(F)F
5.26
O=C1CC(c2ccsc2)c2sc(C(=O)O)c(-c3ccccc3)c2N1 (stereo not drawn)
4.79
CC(C)CN1CCC(NC(=O)c2ccc(F)cc2I)CC1
4.21
Fc1cnc(N2CCC3(COCc4cnc(NCC5CC5)nc43)C2)nc1 (stereo not drawn)
1.04
CC(C)NC(=O)N1CC[C@@H]2CN(Cc3ccccc3)S(=O)(=O)[C@@H]2CC1
-5.41
CC(C)c1nc2n(n1)CC(NCc1ncc(-c3ccccc3)o1)CC2 (stereo not drawn)
2.86
Cc1nccc(N2CCC(=O)N(Cc3ccc(F)cc3)C(C(C)C)C2)n1 (stereo not drawn)
0
CNc1cccc(C2CCCN(C(C)=O)C2)n1 (stereo not drawn)
1.06
COc1cccc(-c2noc(-c3ccc(NCC4CC4)nc3)n2)c1OC
4.92
CCn1ccnc1CNCC1CCCN1c1cc(NC)ncn1 (stereo not drawn)
4.74
CCn1cnnc1CNC(=O)N1CCC(C(=O)NC)CC1
-0.526
CCNc1nc2c(s1)C(=O)CN(C(=O)NCCc1ccccc1)C2
1.58
c1ccc(-n2ncc(CN3CCCC3Cn3cccn3)n2)cc1 (stereo not drawn)
-1.96

###

Parameter Percent Effect: see the listing below.
# target entity: Chromo domain-containing protein 1 (Saccharomyces cerevisiae (strain ATCC 204508 / S288c) (Baker's yeast))
# measurement notes: ScCHD-1 Enzyme Inhibition Assay
# Format: functional
# Set-up: scale not given: in the data most compounds retested in dose-response had high values
# setup conditions: 30 µM
quantity name: Percent Effect

O=C(CCc1ccccc1F)NS(=O)(=O)c1ccc2c(c1)OCCCO2
-20.4%
CC(=O)N1CC(=O)N(c2ccccc2)CC12CCN(Cc1nccs1)C2 (stereo not drawn)
-7.28%
CCSc1ccc(C(=O)Nc2c(C)nn(C(C)C)c2C)cn1
-2.1%
